Measured tissue to tissue ratio at 24 h of individual entries
- Measurement notes: in vivo
- Run conditions: BALB/c nude, mouse, in vivo, iv, total radioactivity, T/Sp Tumor/Spleen ratio

{"columns": ["Compound", "tissue to tissue ratio at 24 h"],
 "data": [
  ["C[C@@H](O)[C@H](NC(=O)[C@@H]1CSSC[C@H](NC(=O)[C@@H](Cc2ccccc2)NC(=O)COCCOCCNC(=O)COCCOCCNC(=O)[C@H](CCCCNC(=O)c2cccc(NC(=O)N[C@@H]3CN(C4CCCCC4)c4ccccc4N(CC(=O)C(C)(C)C)C3=O)c2)NC(=O)CN2CCN(CC(=O)O)CCN(CC(=O)O)CCN(CC(=O)O)CC2)C(=O)N[C@@H](Cc2ccc(O)cc2)C(=O)N[C@H](Cc2c[nH]c3ccccc23)C(=O)N[C@@H](CCCCN)C(=O)N[C@@H]([C@@H](C)O)C(=O)N1)C(=O)O [Compound I-39, DOTA-K(Z360)-OEG-OEG-f[CYwKTC]T-OH]", 89],
  ["C[C@@H](O)[C@H](NC(=O)[C@@H]1CSSC[C@H](NC(=O)[C@@H](Cc2ccccc2)NC(=O)CCCCCCCNC(=O)[C@H](CCCCNC(=O)c2cccc(NC(=O)N[C@@H]3CN(C4CCCCC4)c4ccccc4N(CC(=O)C(C)(C)C)C3=O)c2)NC(=O)CN2CCN(CC(=O)O)CCN(CC(=O)O)CCN(CC(=O)O)CC2)C(=O)N[C@@H](Cc2ccc(O)cc2)C(=O)N[C@H](Cc2c[nH]c3ccccc23)C(=O)N[C@@H](CCCCN)C(=O)N[C@@H]([C@@H](C)O)C(=O)N1)C(=O)O [Compound I-61, DOTA-K(Z360)-Aoc-f[CYwKTC]T-OH]", 0.2],
  ["C[C@@H](O)[C@H](NC(=O)[C@@H]1CSSC[C@H](NC(=O)[C@@H](Cc2ccccc2)NC(=O)[C@H](CCCCNC(=O)c2cccc(NC(=O)N[C@@H]3CN(C4CCCCC4)c4ccccc4N(CC(=O)C(C)(C)C)C3=O)c2)NC(=O)CCOCCOCCOCCNC(=O)CN2CCN(CC(=O)O)CCN(CC(=O)O)CCN(CC(=O)O)CC2)C(=O)N[C@@H](Cc2ccc(O)cc2)C(=O)N[C@H](Cc2c[nH]c3ccccc23)C(=O)N[C@@H](CCCCN)C(=O)N[C@@H]([C@@H](C)O)C(=O)N1)C(=O)O [Compound I-48, DOTA-PEG3-K(Z360)-f[CYwKTC]T-OH]", 19],
  ["C[C@@H](O)[C@H](NC(=O)[C@@H]1CSSC[C@H](NC(=O)[C@@H](Cc2ccccc2)NC(=O)CC[C@H](NC(=O)[C@H](CCCCNC(=O)CC[C@H](NC(=O)CNC(=O)c2cccc(NC(=O)N[C@@H]3CN(C4CCCCC4)c4ccccc4N(CC(=O)C(C)(C)C)C3=O)c2)C(=O)O)NC(=O)CC[C@H](NC(=O)CN2CCN(CC(=O)O)CCN(CC(=O)O)CCN(CC(=O)O)CC2)C(=O)O)C(=O)O)C(=O)N[C@@H](Cc2ccc(O)cc2)C(=O)N[C@H](Cc2c[nH]c3ccccc23)C(=O)N[C@@H](CCCCN)C(=O)N[C@@H]([C@@H](C)O)C(=O)N1)C(=O)O [Compound I-9]", 11],
  ["C[C@@H](O)[C@H](NC(=O)[C@@H]1CSSC[C@H](NC(=O)[C@@H](Cc2ccccc2)NC(=O)CCOCCOCCOCCOCCOCCOCCNC(=O)[C@H](CCCCNC(=O)c2cccc(NC(=O)N[C@@H]3CN(C4CCCCC4)c4ccccc4N(CC(=O)C(C)(C)C)C3=O)c2)NC(=O)CN2CCN(CC(=O)O)CCN(CC(=O)O)CCN(CC(=O)O)CC2)C(=O)N[C@@H](Cc2ccc(O)cc2)C(=O)N[C@H](Cc2c[nH]c3ccccc23)C(=O)N[C@@H](CCCCN)C(=O)N[C@@H]([C@@H](C)O)C(=O)N1)C(=O)O [Compound I-40, DOTA-K(Z360)-PEG6-f[CYwKTC]T-OH]", 53],
  ["C[C@@H](O)[C@H](NC(=O)[C@@H]1CSSC[C@H](NC(=O)[C@@H](Cc2ccccc2)NC(=O)[C@H](CCCCNC(=O)c2cccc(NC(=O)N[C@@H]3CN(C4CCCCC4)c4ccccc4N(CC(=O)C(C)(C)C)C3=O)c2)NC(=O)COCCOCCNC(=O)COCCOCCNC(=O)CN2CCN(CC(=O)O)CCN(CC(=O)O)CCN(CC(=O)O)CC2)C(=O)N[C@@H](Cc2ccc(O)cc2)C(=O)N[C@H](Cc2c[nH]c3ccccc23)C(=O)N[C@@H](CCCCN)C(=O)N[C@@H]([C@@H](C)O)C(=O)N1)C(=O)O [Compound I-41, DOTA-OEG-OEG-K(Z360)-f[CYwKTC]T-OH]", 55],
  ["C[C@@H](O)[C@H](NC(=O)[C@@H]1CSSC[C@H](NC(=O)[C@@H](Cc2ccccc2)NC(=O)COCCOCCNC(=O)[C@H](CCCCNC(=O)[C@H](CCC(=O)O)NC(=O)c2cccc(NC(=O)N[C@@H]3CN(C4CCCCC4)c4ccccc4N(CC(=O)C(C)(C)C)C3=O)c2)NC(=O)CN2CCN(CC(=O)O)CCN(CC(=O)O)CCN(CC(=O)O)CC2)C(=O)N[C@@H](Cc2ccc(O)cc2)C(=O)N[C@H](Cc2c[nH]c3ccccc23)C(=O)N[C@@H](CCCCN)C(=O)N[C@@H]([C@@H](C)O)C(=O)N1)C(=O)O [Compound I-27, DOTA-K(-E-Z360)-OEG-f[CYwKTC]T-OH]", 64],
  ["C[C@@H](O)[C@H](NC(=O)[C@@H]1CSSC[C@H](NC(=O)[C@@H](Cc2ccccc2)NC(=O)CCOCCOCCOCCNC(=O)[C@H](CCCCNC(=O)c2cccc(NC(=O)N[C@@H]3CN(C4CCCCC4)c4ccccc4N(CC(=O)C(C)(C)C)C3=O)c2)NC(=O)CN2CCN(CC(=O)O)CCN(CC(=O)O)CCN(CC(=O)O)CC2)C(=O)N[C@@H](Cc2ccc(O)cc2)C(=O)N[C@H](Cc2c[nH]c3ccccc23)C(=O)N[C@@H](CCCCN)C(=O)N[C@@H]([C@@H](C)O)C(=O)N1)C(=O)O [Compound I-38, DOTA-K(Z360)-PEG3-f[CYwKTC]T-OH]", 72]
]}

Sourced from patent US20260248972A1
